Reported Potency values follow for various compounds
Tested on: JEG-3
Assay: Primary qHTS to identify gynecologic anti-cancer compounds using libraries of approved drugs and bioactive compounds (AID 1345084); also: nearly all actives have a fitted effect of over 55% in size; also: potency is read from the fitted curve at half-maximal effect
Conditions: Gynecologic cancer cell panel viability, ATPlite luminescence, 48 h; series mostly up to 57.5 µM
Results filed as inconclusive are left out. Calls of active or inactive are those of the source. Calls follow the shape of the dose curve; as a rule, active = well fitted cell-killing curve with a large enough effect; inconclusive = small, poorly fitted or top-dose-only effect, or effect the other way; inactive = flat fitted curve, though single readings scatter.

Item COc1cc(OC)c(/C=C/S(=O)(=O)Cc2ccc(OC)c(NCC(=O)O)c2)c(OC)c1 has what recorded Potency?
0.447 µM (active)

Next:
Item COc1ccc(C[C@H](N)C(=O)N[C@@H]2[C@H](O)[C@H](n3cnc4c(N(C)C)ncnc43)O[C@@H]2CO)cc1 has what recorded Potency?
3.55 µM (active)

Item C=C1CN(Cc2ccc(C(=O)Nc3ccccc3N)cc2)C(=O)c2ccccc21 has what recorded Potency?
5.62 µM (active)

Item CC(C)[C@@](C)(O)[C@@H]1CN(c2nc(-c3[nH]nc4ncccc34)c(F)cc2Cl)CCN1 has what recorded Potency?
25.1 µM (active)

Item CCCCc1nc2cc(/C=C/C(=O)NO)ccc2n1CCN(CC)CC has what recorded Potency?
3.16 µM (active)

----------
System: HaCat
Test: Cytotoxic Profiling of Annotated Libraries Using Quantitative High-Throughput Screening (AID 1296008); also: nearly all actives have a fitted effect of over 60% in size; also: potency is read from the fitted curve at half-maximal effect
Settings: Five cell lines viability, CellTiter-Glo ATP luminescence, 48-72 h
Results filed as inconclusive are left out. Calls of active or inactive are those of the source. The call rests on the fitted dose curve; in most records, active means well fitted inhibition curve with a large enough effect; inconclusive means small, poorly fitted or top-dose-only effect; inactive means flat fitted curve, though single readings scatter.
Measurement kind: Potency

Item COC(=O)C1=CO[C@@H](O[C@@H]2O[C@H](CO)[C@@H](O)[C@H](O)[C@H]2O)C2C1C(=O)C[C@H]2C (stereo partly specified) has what recorded Potency?
inactive

Item CC1=C(CO)C(=O)O[C@@H]([C@@H](C)[C@H]2CC[C@H]3[C@@H]4C[C@H]5O[C@]56[C@@H](O)C=CC(=O)[C@]6(C)[C@H]4CC[C@]23C)C1 has what recorded Potency?
3170 nM (active)

Item O=C(O)CCCCCC[C@H]1C(=O)NC(=O)N1CC[C@@H](O)C1CCCCC1 has what recorded Potency?
inactive

Item COc1ccc([C@@]2(O)c3c(ccc(CC=C(C)C)c3O)NC(=O)[C@@H]2OC)cc1 has what recorded Potency?
inactive

Item C=CC(C)(C)c1[nH]c2cc3c(cc2c1CC1NC(=O)C2=CCCN2C1=O)C=CC(C)(C)O3 (stereo unspecified) has what recorded Potency?
inactive

Item C[C@@H]1CCN(C(=O)N2CCCC2)C[C@@H]1N(C)c1ncnc2[nH]ccc12 has what recorded Potency?
inactive

Item OCC1OC(Oc2cc(O)cc(/C=C/c3ccc(O)cc3)c2)C(O)C(O)C1O (stereo unspecified) has what recorded Potency?
inactive

Item O=C(O)Cc1cn(C2OCC(O)C(O)C2O[C@@H]2O[C@H](CO)[C@@H](O)[C@H](O)[C@H]2O)c2ccccc12 (stereo partly specified) has what recorded Potency?
inactive

Item COc1cc2c(cc1O)CC[C@H]1[C@@H]2CC[C@]2(C)[C@H](O)CC[C@@H]12 has what recorded Potency?
580 nM (active)

Item Cc1nc(NC(=O)N2CCCC2C(N)=O)sc1-c1csc(C(C)(C)C)n1 (stereo unspecified) has what recorded Potency?
5170 nM (active)

Next:
Item C=C1C(OC2OCC(O)C(O)C2O)CC2C(C)(C)C(O)CCC2(C)C1CC/C(C)=C\CO (stereo unspecified) has what recorded Potency?
inactive

Item C=C1C(=O)O[C@@H]2/C=C(\C)C(=O)/C=C/[C@](C)(O)C[C@@H](OC(=O)C(C)C)[C@@H]12 has what recorded Potency?
2020 nM (active)

----------
Reported max response values follow for various compounds
Test system: HEK293
Test: Cytotoxic Profiling of Annotated Libraries Using Quantitative High-Throughput Screening (AID 1296008); also: nearly all actives have a fitted effect of over 60% in size; as to max response: % is scaled to controls: 0 for no effect and ±100 for the full control effect
Conditions: Five cell lines viability, CellTiter-Glo ATP luminescence, 48-72 h; hits give low values
Results filed as inconclusive are left out.
# unit: % | format: bare number

Item CC(=O)c1ccc2c(c1)C(O)C(C(C)(C)O)O2 (configuration not stated) has what recorded max response?
-3.07

Item CC(C)=CCC[C@](C)(O[C@@H]1O[C@H](CO)[C@@H](O)[C@H](O)[C@H]1O)[C@H]1CC[C@]2(C)[C@@H]1[C@H](O)CC1[C@@]3(C)CC[C@H](O)C(C)(C)C3[C@@H](O[C@@H]3O[C@H](CO)[C@@H](O)[C@H](O)[C@H]3O[C@@H]3OC[C@@H](O)[C@H](O)[C@H]3O)C[C@]12C (some centres not stated) has what recorded max response?
-0.716

Item OC[C@H]1O[C@@H](OCCc2ccc(O)cc2)[C@H](O[C@@H]2OC[C@](O)(CO)[C@H]2O)[C@@H](O)[C@@H]1O has what recorded max response?
0.652

Item CCOC(=O)c1cc(C#N)c(N2CCC(C(=O)NS(=O)(=O)Cc3ccccc3)CC2)nc1C has what recorded max response?
-0.212

Next:
Item COc1ccc(C2(O)CCC(N3CC[C@@H](NC(=O)CNC(=O)c4cccc(C(F)(F)F)c4)C3)CC2)cn1 (some centres not stated) has what recorded max response?
-19.1

Item O=C(CCc1ccccc1)N1CCC(O)(Cn2cnc3cc(Cl)ccc3c2=O)CC1 has what recorded max response?
-25.5

Item Cc1cc(O)cc(O[C@@H]2O[C@H](CO)[C@@H](O)[C@H](O)[C@H]2O)c1 has what recorded max response?
0.562

----------
Tested on: CAOV3
Experiment: Primary qHTS to identify gynecologic anti-cancer compounds using libraries of approved drugs and bioactive compounds (AID 1345084); also: nearly all actives have a fitted effect of over 55% in size; also: potency is read from the fitted curve at half-maximal effect
Settings: Gynecologic cancer cell panel viability, ATPlite luminescence, 48 h; series mostly up to 57.5 µM
Results filed as inconclusive are left out. Calls of active or inactive are those of the source. Calls follow the shape of the dose curve; as a rule, active = well fitted cell-killing curve with a large enough effect; inconclusive = small, poorly fitted or top-dose-only effect, or effect the other way; inactive = flat fitted curve, though single readings scatter.
Measurement kind: Potency

Example entries and their recorded answers appear below.
Item CC(C)c1c2cc(-c3ccnc(NC4CCC(NC5CCOCC5)CC4)n3)ccc2nn1C (stereo not given) has what recorded Potency?
inactive

Item Cc1cnc(Nc2ccc(F)cc2Cl)nc1-c1c[nH]c(C(=O)NC(CO)c2cccc(Cl)c2)c1 (stereo not given) has what recorded Potency?
inactive

Item CC(O)CO[C@@H]1O[C@H](CO)[C@@H](O)[C@H](O)[C@H]1O (stereo not given in full) has what recorded Potency?
inactive

Item CCN(Cc1cccnc1)C(=O)CN(c1ccc(OC)nc1)S(=O)(=O)c1ccccc1C has what recorded Potency?
inactive

Next:
Item COc1cc(N2CCOCC2)ccc1Nc1ncc(Cl)c(Nc2ccccc2NS(C)(=O)=O)n1 has what recorded Potency?
3.55 µM (active)

Item O=C(CCCCN1CCOCC1)Nc1ccc(-c2cccnc2)cc1 has what recorded Potency?
inactive

----------
Target: Cytochrome P450 2D6 (Homo sapiens)
Assay: Cytochrome P450 family 2 subfamily D member 6 (CYP2D6) small molecule antagonists: luciferase biochemical (cell-free) qHTS assay (AID 1645840); also: nearly all actives have a fitted effect of over 55% in size
Conditions: P450-Glo CYP2D6 enzyme, luciferin luminescence, 1 h; series mostly up to 57.4 µM
Inconclusive results are not listed. Calls of active or inactive are those of the source. Calls follow the shape of the dose curve; as a rule, active = well fitted inhibition curve with a large enough effect in the repeat runs; inconclusive = weak or mixed curves; inactive = flat fitted curve, though single readings scatter.
Permitted responses: Yes (active), No (inactive)

What call does the record list for COc1cccc(C(=O)N2CCN(C(=O)COc3cccc(C)c3)CC2)c1OC ?
No

What call does the record list for CCCCOC(=O)NC(=O)C1c2ccccc2Oc2ccccc21 ?
No

What call does the record list for Cc1ncc(CCCN(C)C)cc1Nc1ncc2c(n1)-c1ccc(C(F)(F)F)cc1NC(=S)C2 ?
Yes

What call does the record list for CNS(=O)(=O)CC1CCC(N(C)c2ncnc3[nH]ccc23)CC1 (stereo not given) ?
No

What call does the record list for CNCc1ccc(-c2cc(-c3nc(-c4ccc(S(=O)(=O)C(C)C)cc4)cnc3N)on2)cc1 ?
No

Next:
What call does the record list for COC(C(=O)N1Cc2[nH]nc(NC(=O)c3ccc(N4CCN(C)CC4)cc3)c2C1)c1ccccc1 (stereo not given) ?
No

What call does the record list for COc1cc(NC(=O)Nc2cccc(CNC(=O)O[C@H]3CCOC3)c2)ccc1-c1cnco1 ?
Yes

----------
Biological target: Phospholipid hydroperoxide glutathione peroxidase GPX4 (Homo sapiens) (UniProt P36969)
Sequence (P36969 whole entry, looked up): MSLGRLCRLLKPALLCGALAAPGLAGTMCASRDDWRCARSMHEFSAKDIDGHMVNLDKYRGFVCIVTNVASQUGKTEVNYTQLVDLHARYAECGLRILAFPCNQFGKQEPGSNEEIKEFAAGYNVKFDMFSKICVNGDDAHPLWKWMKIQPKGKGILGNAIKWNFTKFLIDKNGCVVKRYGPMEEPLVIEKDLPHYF
Test: Primary qHTS Assay for Inhibitors of Recombinant Selenoprotein Glutathione Peroxidase 4 (GPX4) (AID 1845192); also: % is scaled to controls: 0 for no effect and ±100 for the full control effect; nearly all actives have a fitted effect of over 65% in size
Settings: recombinant GPX4, GR-coupled NADPH fluorescence, 15 min; series mostly up to 50 µM
Inconclusive results are not listed. The source made the active and inactive calls. Calls come from the whole dose curve; as a rule, active = well fitted inhibition curve with a large enough effect; inconclusive = small, poorly fitted or top-dose-only effect; inactive = flat fitted curve, though single readings scatter.
Measurement kind: activity change, negative = inhibition

Item CN(C)C1CCN(C(=O)c2ccc(NC(=O)Nc3ccc(-c4nc(N5CCOCC5)nc(N5CCOCC5)n4)cc3)cc2)CC1 has what recorded activity change, negative = inhibition?
inactive

Item CC1(C)C2CC(OC3OC(COC4OCC(O)(CO)C4O)C(O)C(O)C3O)C1(C)CC2O (stereo unspecified) has what recorded activity change, negative = inhibition?
inactive

Item C[C@@H]1CN(Cc2ncccn2)C[C@H]1c1nc2c(cnn2C2CCOCC2)c(=O)[nH]1 has what recorded activity change, negative = inhibition?
inactive

Item OC[C@H]1O[C@@H](Oc2cc(O)c3c(c2)O[C@@H](c2ccc(O)cc2)[C@H](O)C3)[C@H](O)[C@@H](O)[C@@H]1O has what recorded activity change, negative = inhibition?
inactive

Item C/C1=C\CCC2=C[C@@H](OC2=O)c2c(C)coc2C1 has what recorded activity change, negative = inhibition?
inactive

Item CC(O)/C=C/C1C(C)C(O[C@@H]2O[C@H](CO)[C@@H](O)[C@H](O)[C@H]2O)C(O)CC1(C)C (stereo partly specified) has what recorded activity change, negative = inhibition?
inactive

Next:
Item CC1(C)CCC2(C(=O)OC3OCC(O)C(O)C3O)CCC3(C)C(=CCC4C5(C)CC(O)C(OC6OC(COC7OCC(O)C(O)C7O)C(O)C(O)C6O)C(C)(C)C5CCC43C)C2C1 (stereo unspecified) has what recorded activity change, negative = inhibition?
inactive

Item COc1cccc(C(=O)N2CCN(C(=O)COc3cccc(C)c3)CC2)c1OC has what recorded activity change, negative = inhibition?
inactive
